Potency by entry:
Experiment: Confirmation Concentration-Response Assay for Cell signaling CRE-BLA (Fsk stim) - HEK293 CREB Luciferase
Conditions: HEK293 CRE-luc2P, NKH477 EC10 potentiation, luminescence, 4 h
Experimental: NIH Molecular Libraries Screening Centers Network [MLSCN] NIH Chemical Genomics Center [NCGC] MLSCN Grant: 1X01MH079867-01 Assay Provider: Marshall W. Nirenberg, U.S. National Heart, Lung and Blood Institute CRE Luciferase Assay Overview Memories persist for different lengths of time, from seconds or minutes to a lifetime. […] The selected compounds were measured for their ability to modulate positively the action of EC10 NKH 477, a water soluble forskolin, on reporter gene activity. […]
The list shows a part of the results. Results filed as inconclusive are left out. The source made the active and inactive calls. The call rests on the fitted dose curve; in most records, active means well fitted activation curve with a large enough effect; inconclusive means small, poorly fitted or top-dose-only effect, or effect the other way; inactive means flat fitted curve, though single readings scatter.
endpointLabel: Potency

> print(dat)
                                   compound            result
1  Cc1nc(SCC(=O)Nc2cc(C)on2)c2c3c(sc2n1)CCCC3  4.47 µM (active)
2  Cc1nn(-c2ccccc2)c2sc(C(=O)N(Cc3ccco3)C(C)C(=O)NC(C)(C)C)cc12 (centres undefined)  4.47 µM (active)
3    CCc1nc(Nc2ccc3nccnc3c2)c2oc3ccccc3c2n1  1.26 µM (active)
4  CC1CCc2sc3nc(N4CCN(CCO)CC4)n4ncnc4c3c2C1 (centres undefined)  12.6 µM (active)
